Tested on: SK-MEL-28 melanoma
measurement-protocol: NCI tumour cell line growth inhibition, 48 h
Would you mind telling me the reported TGI of each entry?

In plain terms, "C1=C\SS/C=C\SS/C=C\SS/C=C\SS/1" has a documented TGI of > 100 µM

In plain terms, CC1CC2C3CC(F)C4=CC(=O)C=CC4(C)C3(F)C(O)CC2(C)C1(O)C(=O)COC(=O)C(C)(C)C (configuration not stated) has a documented TGI of > 100 µM

In plain terms, "O=C1C(N2CCCC2)=CC(=O)c2c(O)c(N3CCCC3)c(Cl)c(O)c21" has a documented TGI of > 10 µM

In plain terms, "C[n+]1c(/C=C\C=C\N2CCCCC2)sc2ccccc21" has a documented TGI of 13.4 µM

In plain terms, C=CCNC(=S)Nc1sc2c(c1C(=O)OCC)CC(C)CC2 (configuration not stated) has a documented TGI of > 100 µM

In plain terms, CCCNC1CC(n2cc(C)c(=O)[nH]c2=O)OC1CO (configuration not stated) has a documented TGI of > 100 µM

In plain terms, O=C1NC(N/N=C\C(O)C(O)C(O)CO)=N/C1=C/c1ccccc1 (configuration not stated) has a documented TGI of > 100 µM

In plain terms, "CCCC(=O)O" has a documented TGI of > 18700 µM

In plain terms, "Cc1nc2sccn2c1/C=C1/C(=O)Nc2ccccc21" has a documented TGI of > 100 µM

In plain terms, "Cc1ccc(S(=O)(=O)c2scc(-c3ccccc3)c2C)cc1" has a documented TGI of > 100 µM

In plain terms, "CCCN(CCC)CCCNCc1cc(I)cc(C)c1O" has a documented TGI of 28.9 µM

In plain terms, "N#C/C(=C\c1ccccc1O)C(N)=O" has a documented TGI of > 100 µM
